Target: T1, human IL-21R extracellular domain His-Flag fusion protein (human, UniProt Q9HBE5 20-232)
T1 construct: Biotinylated in the HTRF screen; also called hIL-21R-H/F; human IL-21R-H/F
T1 sequence (Q9HBE5 20-232): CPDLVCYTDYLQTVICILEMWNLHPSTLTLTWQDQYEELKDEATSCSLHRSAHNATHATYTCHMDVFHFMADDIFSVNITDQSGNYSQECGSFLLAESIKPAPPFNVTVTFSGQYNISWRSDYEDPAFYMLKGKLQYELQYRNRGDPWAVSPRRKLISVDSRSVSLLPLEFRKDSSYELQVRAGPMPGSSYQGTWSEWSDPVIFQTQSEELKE
Assay: SPR, Ab captured on anti-human IgG, replicate experiment
assay.endpoint: Kd (nM)

INSERT INTO assay_data (binder, assay_endpoint, measured_value) VALUES
  ('AbT (antibody, human IgG1, V domains shown, CDR3 graft, residue limits derived as for m29; also called VHP/VL9; VHPTM/VL9) VH: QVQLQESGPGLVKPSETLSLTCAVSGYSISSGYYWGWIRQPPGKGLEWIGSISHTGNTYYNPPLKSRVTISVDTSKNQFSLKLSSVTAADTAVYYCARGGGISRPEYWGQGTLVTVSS VL: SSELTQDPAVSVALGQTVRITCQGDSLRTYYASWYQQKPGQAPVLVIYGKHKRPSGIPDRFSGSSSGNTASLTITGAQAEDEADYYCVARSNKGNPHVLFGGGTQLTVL', 'Kd', 0.272),
  ('AbR (antibody, human IgG1, V domains shown, CDR3 graft, residue limits derived as for m29; also called VH3/VL18; VH3DM/VL18) VH: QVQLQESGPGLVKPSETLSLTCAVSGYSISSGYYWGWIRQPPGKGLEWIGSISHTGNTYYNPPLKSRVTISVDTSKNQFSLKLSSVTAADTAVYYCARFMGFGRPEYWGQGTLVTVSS VL: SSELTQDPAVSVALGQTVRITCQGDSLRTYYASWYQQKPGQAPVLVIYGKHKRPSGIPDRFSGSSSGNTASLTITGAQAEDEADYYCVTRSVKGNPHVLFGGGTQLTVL', 'Kd', 0.394);
